- System: HEK-293T
- Test Method Notes: Incucyte cell viability with HEK293T; note: unitless GR value; below 1 slowed growth and below 0 cell loss
- Format: toxicity, cell-based
- Condition Parameters: human, 18 h, 10 µM, compound concentration 10 uM, replicate number 2
Assay Readout: Growth Rate
The answer should be written as a number, with no unit following it.

Reported Growth Rate for COc1cc(N2CCC(N3CCN(C)CC3)CC2)ccc1Nc1ncc(Cl)c(Nc2ccccc2S(=O)(=O)C(C)C)n1 [TAE-684] was 0.06

Reported Growth Rate for Cc1cn([C@H](C)CC#N)c(=O)c2cc(Cn3nc(C(F)F)cc3Cl)nn12 was 0.9

Reported Growth Rate for O=C(Nc1c[nH]nc1-c1nc2cc(CN3CCOCC3)ccc2[nH]1)NC1CC1 [AT-9283] was -0.43

Reported Growth Rate for Cc1nc2ccc(Oc3ccc(F)cc3)cc2c(=O)n1C[C@H]1CCCN(C(C)C)C1.Cl was 0.4

Reported Growth Rate for Cc1c(-c2cc(-c3ccccc3Cl)no2)cnn1C1CCNCC1.Cl was -0.18

Reported Growth Rate for CCCC(=O)C1CCN(c2ncnc3c2CN(C(=O)c2ccc(-c4ccccc4)cc2)CC3)CC1 was 0.82

Reported Growth Rate for CC(C)CC(=O)Nc1cncc(-c2ccc3[nH]nc(-c4nc5c(-c6cccc(F)c6)cncc5[nH]4)c3c2)c1 [LORECIVIVINT] was -0.58

Reported Growth Rate for CN(C)C(=O)Cn1cc(-c2nc([C@@](C)(c3ccc(-c4cnc(N)nc4)cc3)C3CC3)no2)cn1 [BI 665915] was 0.9

###

Field: Growth Rate. Provide a value for each of the compounds that follow.
- System: Fibroblast
- Test Method Notes: Incucyte cell viability with human fibroblast; note: unitless GR value; below 1 slowed growth and below 0 cell loss
- Format: toxicity, cell-based
- Condition Parameters: 18 h, 10 µM, compound concentration 10 uM, replicate number 1
The answer should be written as a number, with no unit following it.

The measured Growth Rate that Fc1ccc(-c2nc(-c3ccc4ccccc4c3F)[nH]c2-c2ccncc2)cc1 showed for Fibroblast is 0.61

The measured Growth Rate that CN1CCN(c2nc(N)c3ccccc3n2)CC1 showed for Fibroblast is 0.78

The measured Growth Rate that CC(C)(C)OC(=O)CN(Cc1ccc(Cl)cc1)Cc1ccc([N+](=O)[O-])s1 [GSK-4112] showed for Fibroblast is 0.74

The measured Growth Rate that N#Cc1ccnc(Nc2cc(C3CCN(C4COC4)CC3)cc(N3CCC(F)(F)C3)n2)c1 showed for Fibroblast is -0.85

The measured Growth Rate that CNCc1ccc(-c2cc(-c3nc(-c4ccc(S(=O)(=O)C(C)C)cc4)cnc3N)on2)cc1 [BERZOSERTIB] showed for Fibroblast is 0.32

The measured Growth Rate that CC(C)(C)c1ccc(NC(=O)N2CCN(c3ncccc3Cl)CC2)cc1 showed for Fibroblast is 0.84

The measured Growth Rate that CC(C)C[C@H](NC(=O)c1cc2ccccc2s1)C(=O)N1CCN(C(=O)[C@H](CO)NS(=O)(=O)c2ccc(Cl)cc2Cl)CC1 showed for Fibroblast is -0.18

The measured Growth Rate that CCN1C(=O)c2cc(C)ccc2N(C)c2ncccc21 showed for Fibroblast is 0.79

The measured Growth Rate that c1cc(-c2cnn3cc(-c4ccc(N5CCNCC5)cc4)cnc23)c2cccnc2c1 showed for Fibroblast is -0.44

The measured Growth Rate that C=C(C)[C@H]1CN[C@H](C(=O)O)[C@H]1CC(=O)O [KAINIC ACID] showed for Fibroblast is 0.63

The measured Growth Rate that O=C(O)c1cc(F)c2nc(N3[C@@H]4CC[C@H]3C[C@@H](OCc3c(-c5ccccc5OC(F)(F)F)noc3C3CC3)C4)sc2c1 [TROPIFEXOR] showed for Fibroblast is 0.63

The measured Growth Rate that C[C@@H]1COCCN1c1cc(=O)n2c(n1)N(Cc1cncc(Cl)c1)[C@H](C(F)(F)F)CC2 showed for Fibroblast is 0.92

The measured Growth Rate that CCOC(=O)N1CCC(c2cc(O)n3nc(C)c(-c4ccc(F)cc4)c3n2)CC1 showed for Fibroblast is 0.13

The measured Growth Rate that C[C@]12CC[C@H](O)CC1=CC[C@@H]1[C@@H]2CC[C@]2(C)C(n3cnc4ccccc43)=CC[C@@H]12 [GALETERONE] showed for Fibroblast is 0.61

The measured Growth Rate that O=C(Nc1ccc(S(=O)(=O)Nc2nccs2)cc1)C(c1ccccc1)c1ccccc1 showed for Fibroblast is 0.49

The measured Growth Rate that C[C@@H](Oc1cc(-n2cnc3ccc(OC4CCN(C)CC4)cc32)sc1C(N)=O)c1ccccc1Cl [GSK-579289A] showed for Fibroblast is 0.83

The measured Growth Rate that COc1cc(NC(=O)c2ccc(-c3ccc(Cl)cc3)o2)cc(OC)c1 showed for Fibroblast is 0.5

The measured Growth Rate that CCN(CC)CCO[C@H]1CC[C@@]2(C)C(=CC[C@@H]3[C@@H]2CC[C@]2(C)C(=O)CC[C@@H]32)C1.Cl showed for Fibroblast is -0.18

The measured Growth Rate that Cn1nccc1Nc1nccc(-c2cc3c(s2)C(C)(C)N(CCN2CCOCC2)C3=O)n1 [TEMUTERKIB] showed for Fibroblast is 0.27

The measured Growth Rate that O=C(N[C@@H]1C2CCN(CC2)[C@H]1Cc1cccnc1)c1cc2ccccc2o1 [BRADANICLINE] showed for Fibroblast is 0.35

The measured Growth Rate that O=C(O)c1ccc(S(=O)(=O)N(Cc2ccc(OC(F)(F)F)cc2)c2ncc(C(F)(F)F)cc2Cl)cc1 showed for Fibroblast is 0.16

The measured Growth Rate that Nc1ncnc2c1c(I)cn2[C@@H]1O[C@H](CO)[C@@H](O)[C@H]1O [IODOTUBERCIDIN] showed for Fibroblast is 0.57

The measured Growth Rate that C=CC(=O)N1CCC[C@@H](n2nc(-c3ccc(Oc4ccccc4)cc3)c3c(N)ncnc32)C1 [IBRUTINIB] showed for Fibroblast is 0.66

The measured Growth Rate that COC[C@@H](CC(C)C)NC1=N/C(=C\c2ccc3ncsc3c2)C(=O)N1C showed for Fibroblast is 0.63

The measured Growth Rate that NCCCNCCCCNCCC(=O)NCCCCCNC(=O)[C@H](CC(N)=O)NC(=O)Cc1ccc(O)cc1O [JORO SPIDER TOXIN 3] showed for Fibroblast is 0.85

The measured Growth Rate that Nc1ncnc2c1ccn2[C@@H]1O[C@H]([C@@H](O)c2ccccc2)[C@@H](O)[C@H]1O showed for Fibroblast is 0.97

The measured Growth Rate that CC(=O)Nc1c(F)cc(C(=O)N[C@H]2CC[C@H](O)CC2)cc1O[C@@H](C)c1ccccc1 [GSK046] showed for Fibroblast is 0.6

The measured Growth Rate that COc1cc(-c2cn(C)c(=O)c3cnccc23)cc(OC)c1CN(C)C showed for Fibroblast is 0.56

The measured Growth Rate that CCCCCCCC/C=C\CCCCCCCC(=O)NCCO [OLEOYLETHANOLAMIDE] showed for Fibroblast is 0.35

The measured Growth Rate that CC1(C)C(=O)N([C@H]2CCc3c(O)cccc32)c2nc(Nc3cccc(CN4CCCC4)c3)ncc21 showed for Fibroblast is -0.44

The measured Growth Rate that CN1CCN(c2ccnc(NCCc3ccccc3)n2)CC1 [TP-040n] showed for Fibroblast is 0.74

###

Field: Growth Rate. Provide a value for each of the compounds that follow.
- Test system: HEK-293T
- Test Method Notes: Incucyte cell viability with HEK293T; note: unitless GR value; below 1 slowed growth and below 0 cell loss
- Assay type: toxicity, cell-based
- Condition Parameters: human, 6 h, 10 µM, compound concentration 10 uM, replicate number 2

Reported Growth Rate for Cl.Cl.O=C1c2ccccc2C(Cc2ccncc2)(Cc2ccncc2)c2ccccc21 was 0.89

Reported Growth Rate for CN(C)[C@H]1C[C@H](n2cnc(-c3ccc(F)cn3)c2-c2ccnc3[nH]ccc23)C1 was 0.95

Reported Growth Rate for CCNCCNC(=O)c1c(C)[nH]c(/C=C2\C(=O)Nc3ccc(F)cc32)c1C was -0.16

###

- Tested on: Fibroblast
- Test Method Notes: Incucyte cell viability with human fibroblast; note: unitless GR value; below 1 slowed growth and below 0 cell loss
- Format: toxicity, cell-based
- Condition Parameters: 6 h, 10 µM, compound concentration 10 uM, replicate number 2
Assay Readout: Growth Rate
The answer should be written as a number, with no unit following it.

The measured Growth Rate that Cl.Cl.NC1(c2ccc(-c3nc4ccn5c(=O)[nH]nc5c4cc3-c3ccccc3)cc2)CCC1 showed for Fibroblast is -1

The measured Growth Rate that CCc1nc(-c2cccc(C)c2)c(-c2ccncc2)s1 showed for Fibroblast is 1

The measured Growth Rate that CC(C)(C)NC(=O)c1cncn1C1CCN(c2ccc(-c3nnc(C(F)(F)F)o3)cn2)CC1 showed for Fibroblast is -0.99

The measured Growth Rate that c1ccc(Cn2c(N3CCNCC3)nc3ccccc32)cc1 showed for Fibroblast is -0.44

The measured Growth Rate that O=C(CNC(=O)c1ccc(-c2ccccc2)cc1)NC1CCCc2ccccc21 (stereo not given) showed for Fibroblast is 0.27

The measured Growth Rate that C=CC(=O)Nc1cccc(C)c1Nc1ncc2cc(-c3c(Cl)c(OC)cc(OC)c3Cl)ccc2n1 showed for Fibroblast is -0.2

The measured Growth Rate that Cc1cn(CCN2CCN(c3ccccc3-c3cc(C#N)cc(C(=O)NCCCN4CCCC4)c3)CC2)c2ccccc12 showed for Fibroblast is -0.91

The measured Growth Rate that Oc1cccc(Nc2ccnc3[nH]c4ccccc4c23)c1 showed for Fibroblast is -0.81

The measured Growth Rate that CCCCCNC(=O)N1CCC(CN(Cc2ccc(Cl)cc2)Cc2ccc([N+](=O)[O-])s2)C1 (stereo not given) showed for Fibroblast is -0.29

The measured Growth Rate that Nc1ncc2c(n1)-c1c([nH]c3ccc(C4CC4)cc13)CCCC2 showed for Fibroblast is 0.5

The measured Growth Rate that C[C@@H](Cn1c(=O)[nH]/c(=N\c2ccc(Oc3ccccn3)cc2)n(Cc2ccc(Cl)cc2)c1=O)C(=O)O showed for Fibroblast is -1

The measured Growth Rate that CC(C)(O)[C@H]1CC[C@H](Nc2ccc3ncc(-c4cccc(C(F)(F)F)c4)n3n2)CC1 showed for Fibroblast is -0.83

The measured Growth Rate that C1CCC(NC2CCCCC2)CC1.Cc1cc(Cl)ccc1S(=O)(=O)NC[C@H]1C2CCC(CC2)[C@@H]1/C=C\CCCC(=O)O showed for Fibroblast is 0.75

The measured Growth Rate that Cc1cc2c(-c3ccco3)cnc(N[C@H]3CCN(C)C[C@@H]3C(=O)NC3CCCCC3)c2[nH]c1=O showed for Fibroblast is 0.72

The measured Growth Rate that CC(=O)O.Cc1cc2c(ncn2C2(C)CN(C(=O)c3ccn(CC4CCN([C@H]5C=CCCCC5)CC4)c3)C2)c(N)n1 showed for Fibroblast is 0.25

The measured Growth Rate that Cn1c(C2(NC(=O)c3ccc(NCC4CCCCC4)nc3)CCC2)nc2ccc(/C=C/C(=O)O)cc21 showed for Fibroblast is -0.44

The measured Growth Rate that CC1CCN(c2ccnc(NCc3cn(C)cn3)n2)CC1 showed for Fibroblast is 0.66

The measured Growth Rate that O=C(CCCN1CCC(O)(c2ccc(Cl)cc2)CC1)c1ccc(F)cc1 showed for Fibroblast is -0.32

The measured Growth Rate that CC(=O)Nc1nc(CN2CCC[C@H](Cc3cc(C)nc(C)c3)C2)cs1 showed for Fibroblast is 0.73

The measured Growth Rate that Cn1cncc1-c1cn(-c2cccc(C(=O)Nc3cccc(C(F)(F)F)c3)c2)nn1 showed for Fibroblast is 0.53

The measured Growth Rate that CC(C)NC(=O)[C@H]1CCC[C@H]1Nc1nc(Nc2ccc(CN(C)C)cc2)ncc1Br.Cl showed for Fibroblast is -0.82

The measured Growth Rate that CC(=O)c1c(C)c2cnc(Nc3ccn(C)n3)nc2n(C2CCCC2)c1=O showed for Fibroblast is 0.93

The measured Growth Rate that CC(C)(O)c1ccc2c(c1)ncn2-c1cccc(-c2ccccc2C#N)c1 showed for Fibroblast is -0.67

The measured Growth Rate that CCOC(=O)c1cc2cc(-c3cc(C(=O)NCc4ccc(C(=O)O)cc4)nn3C)ccc2[nH]1 showed for Fibroblast is 0.71

The measured Growth Rate that Cc1c(-c2cc(-c3ccccc3Cl)no2)cnn1C1CCNCC1.Cl showed for Fibroblast is -1

The measured Growth Rate that CNC(=O)c1c(F)cccc1Nc1nc(Nc2cc3c(cc2OC)CCN3C(=O)CN(C)C)nc2[nH]ccc12 showed for Fibroblast is -0.71

The measured Growth Rate that CC(C)(C)OC(=O)CN1C(=O)c2c(OCC(=O)O)cccc2Oc2ccc(C(F)(F)F)cc21 showed for Fibroblast is -0.59

The measured Growth Rate that CCN(CC)C(=O)C1CN2CCc3cc(OC)c(OC)cc3C2CC1OC(C)=O (stereo not given) [BENZQUINAMIDE] showed for Fibroblast is -0.43

The measured Growth Rate that CC[C@H](CO)Nc1nc(Nc2cccc(-c3ccccn3)c2)c2ncn(C(C)C)c2n1.Cl.O showed for Fibroblast is 0.21

The measured Growth Rate that CNC(=O)COc1cc2cc(Nc3nc(N4CCC(C(=O)N(C)C)CC4)ncc3Cl)cc(OC)c2n(C)c1=O showed for Fibroblast is 0.46

Numbers sourced from ChEMBL document CHEMBL5303304.
